System: Bacillus subtilis
Assay: cleaved RNA product abundance (RNA/gDNA barcode ratio) relative to median wild-type variant (ratio to wild type); higher = more accumulation of the downstream cleavage product
Settings: experiment (reporter, strain, medium): exp 4a: truncated aprE reporter, strain BJT201 with 2% xylose (RNase J1 expressed); cleavage site: cggR-gapA (positions -7 to +36 mutated)
Class membership depends on cleaved RNA product abundance alone; the intervals are low = under 0.1, middle = from 0.1 up to 0.4, high = 0.4 and over

Field: example entries. Status: answers known.
>  <query-sequence>
ACAGACGAAGGAGCCGCAAAGAAGTTATTAAGGGATGAATGATCCCTAAATATAAATATCTCTCACTTATTTAAA

>  <group-label>
high

$$$$
>  <query-sequence>
ACAGACGAAGGAGCCGCAACGAAGTTATTAAGGGATGAATAATACCTCAATATAAATATCTCTCACTTATTTAAA

>  <group-label>
middle

$$$$
>  <query-sequence>
ACAGACGAAGGAGCCGCAAAGAAGTTATTAAGGTATGAATAATCCGTCAATATAAATATCTCTCACTTATTTAAA

>  <group-label>
low

$$$$

Now let's try a different one.
Given `ACAGACGAAGGAGCCGCAAATAAGTTATTAAGGGATGAACAATCCCTCAATATAAATATCTCTCACTTATTTAAA` , name the class its cleaved RNA product abundance places it in.
high

====

Some sequences, each annotated with its measured cleaved RNA product abundance.
Tested on: Bacillus subtilis
Experiment: cleaved RNA product abundance (RNA/gDNA barcode ratio) relative to median wild-type variant (ratio to wild type); higher = more accumulation of the downstream cleavage product
Conditions: experiment (reporter, strain, medium): exp 4a: truncated aprE reporter, strain BJT201 with 2% xylose (RNase J1 expressed); cleavage site: cggR-gapA (positions -7 to +36 mutated)
Answer as a number with no unit attached.

>  <query-sequence>
ACAGACGAAGGAGCCGCAAAGAAGTTATAAAGGGATGAATAATCCCTCAATTTAAATATCTCTCACTTATTTAAA

>  <cleaved RNA product abundance>
0.152

$$$$

Which cleaved RNA product abundance value belongs to `ACAGACGAAGGAGCCGCAAAGAAGTTATTAAGGGATGAATAATCCCCCAATATACATATCTCTCACTTATTTAAA` ?
0.446

# input sequence: `ACAGACGAAGGAGCCGCAAAGAAGTTTTTAGGGGATGAATAATCCCTCAATATAAATATCTCTCACTTATTTAAA` ; wanted: its cleaved RNA product abundance
0.507

What cleaved RNA product abundance value was documented for this sequence, `ACAGACGAAGGAGCCGCAAAGAAGTTATTAACGGATGAATAATCCCTCAATCTAAATATCTCTCACTTATTTAAA` ?
0.102

Entry under review: `ACAGACGAAGGAGCCGCAAATAAGTTATTAAGGGATGAATAATCCCCCAATATAAATATCTCTCACTTATTTAAA` . Reported cleaved RNA product abundance?
0.23

Find the recorded cleaved RNA product abundance belonging to `ACAGACGAAGGAGCCGCAAAGAAGTTATTAACGGATTAATAATCCCTCAATATAAATATCTCTCACTTATTTAAA` and report it.
0.141

Which value of cleaved RNA product abundance has been reported for `ACAGACGAAGGAGCCGCAAAGAAGTTATTAAGGGATGAATAATCCCCCTATATAAATATCTCTCACTTATTTAAA` in the records?
0.151

Suppose we examine the sequence `ACAGACGAAGGAGCCGCAAAGAAGTTATTAATGGATGAATAATCCCTAAATATAAATATCTCTCACTTATTTAAA` ; what cleaved RNA product abundance value has been reported?
0.196

What value of measured cleaved RNA product abundance is listed for `ACAGACGAAGGAGCCGCAAAGACGTTATTAAAGGATGAATAATCCCTCAATATAAATATCTCTCACTTATTTAAA` ?
0.181

I have this sequence here, `ACAGACGAAGGAGCCGCAAAGAAGTTATTAAGGGATGAACTATCCCTCAATATAAATATCTCTCACTTATTTAAA` , and I need its recorded cleaved RNA product abundance.
0.794

Which cleaved RNA product abundance value is on record for `ACAGACGAAGGAGCCGCAAAGAAGTTATTAAGGGATGAATAATCCCTTATTATAAATATCTCTCACTTATTTAAA` ?
0.813

# get_value(readout='cleaved RNA product abundance', item= `ACAGACGAAGGAGCCGCAAAGAAGTTATTAAGGAATGAATAATCCCGCAATATAAATATCTCTCACTTATTTAAA` )
0.0576

Dear colleague, I am looking for the recorded cleaved RNA product abundance of the following sequence: `ACAGACGAAGGAGCCGCAAAGAAATTATTAACGGATGAATAATCCCTCAATATAAATATCTCTCACTTATTTAAA`
0.168

Which cleaved RNA product abundance value is on record for `ACAGACGAAGGAGCCGCAAAGAATTTATTAAGGGATGAATAATCCCTAAATATAAATATCTCTCACTTATTTAAA` ?
0.591

Param item = `ACAGACGAAGGAGCCGCAAAGAAGTTATTAAGGAATGAATAATCACTCAATATAAATATCTCTCACTTATTTAAA` ; retrieve measured cleaved RNA product abundance.
0.124

For the sequence shown here, `ACAGACGAAGGAGCCGCAAAGAAGTTATTAAGGGATGAATACTCTCTCAATATAAATATCTCTCACTTATTTAAA` , give the reported cleaved RNA product abundance.
0.226

// returns reported cleaved RNA product abundance for input `ACAGACGAAGGAGCCGCAAAGAAGTTATTAAGGGATGTATAATCCCTCAATTTAAATATCTCTCACTTATTTAAA`
0.146

What does the data say about its cleaved RNA product abundance? Entry: `ACAGACGAAGGAGCCGCAAAGAAGTTATTAAGGGATGAATAAGCCCTAAATATAAATATCTCTCACTTATTTAAA`
0.528

Look at this sequence and give its reported cleaved RNA product abundance. `ACAGACGAAGGAGCCGCAAAGAAATTATTAAGGGATGAATAATCCCTCAATTTAAATATCTCTCACTTATTTAAA`
0.153

Query: cleaved RNA product abundance; subject: `ACAGACGAAGGAGCCGCAAAGAAGTTATTAACGTATGAATAATCCCTCAATATAAATATCTCTCACTTATTTAAA`
0.0853
